Experiment: gradient 5% acetonitrile 3 min, to 50% in 2 min, to 85% in 15 min, held 3 min, 100 µL/min
Conditions: column: Zorbax Extend-C18 2.1 x 50 mm; eluents: water / acetonitrile, 0.1% formic acid
quantity kind: RP-LC retention time (s)
Numbers only, in s.

Reference set, count: 5
{"columns": ["compound", "value units", "RP-LC retention time"],
 "data": [
  ["COc1ccc(OC)c2c(C)cc(N3CCN(S(=O)(=O)c4ccc(C)cc4)CC3)nc12", "s", 798],
  ["Cn1nc2n(c1=O)CCN(C(=O)c1cc(CN3CCOCC3)on1)CC2", "s", 534],
  ["COc1ccccc1CNC(=O)Cn1ccc2ccc(N3CCOCC3)nc21", "s", 858],
  ["Cc1ccc(S(=O)(=O)N2CCC3(CC2)NCCN=C3NCc2ccc(Cl)cc2)cc1", "s", 742],
  ["Cc1cccc(-c2noc(-c3sc4ncn(CC(=O)N5CCCC5)c(=O)c4c3C)n2)c1", "s", 1020]
]}

I would be grateful if you could provide RP-LC retention time for each of the following entries.
1. Cc1ccccc1Nc1cc(C)n2c(=O)n(Cc3cccnc3)nc2n1
2. CCC(=O)N1c2ccc(S(=O)(=O)CCC(=O)N3CCCc4ccccc43)cc2CC1C (stereo not given)
3. Cc1c(C(=O)N2CCN(C)CC2)cc(-c2ccccc2)n1C
4. CCc1cc(N2CCN(C(=O)COc3ccc(Cl)cc3)CC2)nc2nncn12

Result string:
[750, 881, 612, 651]

###

Test: gradient 5% acetonitrile 3 min, to 50% in 2 min, to 85% in 15 min, held 3 min, 100 µL/min
Details: column: Zorbax Extend-C18 2.1 x 50 mm; eluents: water / acetonitrile, 0.1% formic acid
quantity kind: RP-LC retention time (s)
One number for each entry, in s.

{"columns": ["compound", "value units", "RP-LC retention time"],
 "data": [
  ["CC(C)n1cnc2cc(CNC(=O)c3ccsc3)ccc21", "s", 579],
  ["Cc1cccc(CN2CC(=O)N(c3ccc(C)c(C)c3)[C@@H]3CS(=O)(=O)C[C@@H]32)c1", "s", 906],
  ["COc1ccccc1C1(CNC(=O)CSc2ccc(F)cc2)CCOCC1", "s", 853],
  ["Cc1cc(C)cc(NC(=O)NC2CCN(c3cc(N4CCCC4)cnn3)C2)c1 (stereo not given)", "s", 690]
]}

Now consider a different compound.
Query string: Please look up its RP-LC retention time: O=C(Cn1cccc(-c2nc(-c3ccc(F)cc3)no2)c1=O)Nc1cc(F)ccc1F
Result string: 915

###

Assay: gradient 5% acetonitrile 3 min, to 50% in 2 min, to 85% in 15 min, held 3 min, 100 µL/min
Conditions: column: Zorbax Extend-C18 2.1 x 50 mm; eluents: water / acetonitrile, 0.1% formic acid
quantity kind: RP-LC retention time (s)
One number for each entry, in s.

{"columns": ["compound", "RP-LC retention time, s"],
 "data": [
  ["Cc1nc(-c2csc(S(=O)(=O)N3CCCC(C(=O)NCCN4CCCCCC4)C3)c2)no1 (stereo not drawn)", 665],
  ["Cn1c(=O)c2ccn(CC(=O)NCc3cccc(Cl)c3)c2n(C)c1=O", 703],
  ["Cc1nn(-c2ccccc2)c(C)c1S(=O)(=O)N1CCC(C(=O)Nc2cccc(Cl)c2C)CC1", 1000],
  ["COc1ccc(CNC(=O)Cn2nc3c4sc(N(C)C)nc4ncn3c2=O)cc1", 668],
  ["CCCCOc1ccc(NC(=O)c2cc(=O)c3cc(Cl)ccc3o2)c2cccnc12", 787]
]}

Dear colleague, could you please provide RP-LC retention time for the compounds listed below?
1. COc1ccc(-c2cc(C(=O)N3CCN(S(=O)(=O)c4ccc(F)c(C)c4)CC3)[nH]n2)cc1
2. Cc1ccc(-c2nnc(-c3cccc(S(=O)(=O)NCC(=O)O)c3)o2)cc1
3. C=CCNC(=O)C1CCN(C(=O)Nc2ccc(NC(=O)Nc3ccccc3)cc2)CC1
4. COCC(=O)Nc1nc(-c2ccc3c(c2)NC(=O)CO3)c(C)s1
5. Cc1cnc(C(=O)NC2C[C@H]3CC[C@@H](C2)N3S(=O)(=O)c2c(C)noc2C)cn1 (stereo partly drawn)

Result string:
[910, 764, 679, 705, 726]

Hi, could you look up RP-LC retention time for each item in my list?
1. COC(=O)c1c(C)[nH]c(C(=O)N2CCC(CC(=O)N3CCOCC3)CC2)c1C
2. CCc1ccc(NC(=O)Cn2c(-c3cnccn3)nc(C)c(C)c2=O)cc1

Result string:
1. 636
2. 792

Each compound below has a reported value. Please supply its RP-LC retention time.
1. CC(C)OCCCNC(=O)CCc1nnc2c3cc(-c4ccccc4)nn3ccn12
2. Fc1cccc(F)c1-c1nc(-c2ccc3nncn3c2)no1
3. CCCCN(CC)C(=O)C1CCCN(c2nc3cccnc3s2)C1 (stereo not drawn)
4. CCOc1ccc(S(=O)(=O)N2CCCC(C(=O)N3CCN(c4ccccc4)CC3)C2)cc1 (stereo not drawn)

Result string:
690
765
914
1020

Would you mind giving RP-LC retention time for every compound in the list below?
1. O=C(Nc1cccc(OCc2nnc(-c3ccc(Cl)cc3)o2)c1)c1ccsc1
2. CCN1CCCC1CNC(=O)CC1CCN(S(=O)(=O)c2ccc3c(c2)CCN3C(C)=O)CC1 (stereo not drawn)
3. CC(NC(=O)c1cccc2[nH]ccc12)C(=O)N1CCCc2ccccc21 (stereo not drawn)

Result string:
1010
597
822
